Molecular target: OR5K1 L255^6.51A (Homo sapiens, UniProt Q8NHB7, L255A)
Construct: The protein-coding region of human OR5K1 (NM_001004736.3); IL-6-HaloTag (from expression plasmid pFN210A) (N); expressed in transfected cells; host or cells: HEK-293
Sequence (Q8NHB7 1-308 L255A): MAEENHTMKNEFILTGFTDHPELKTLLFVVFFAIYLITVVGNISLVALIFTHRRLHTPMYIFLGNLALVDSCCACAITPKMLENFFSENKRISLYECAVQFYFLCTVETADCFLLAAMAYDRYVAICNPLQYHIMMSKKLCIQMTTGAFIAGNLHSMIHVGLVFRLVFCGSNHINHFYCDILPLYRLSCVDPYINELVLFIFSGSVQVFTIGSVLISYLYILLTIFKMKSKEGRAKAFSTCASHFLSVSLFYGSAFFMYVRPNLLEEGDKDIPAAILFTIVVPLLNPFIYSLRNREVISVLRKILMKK
Test: cAMP-luminescence concentration-response assay, mutant OR5K1 L255^6.51A in HEK-293 cells
Assay type: cell-based
Settings: OR5K1 L255^6.51A mutant; mean ± SD, n = 4
Protocol: Mutants L104^3.32 and L255^6.51 were generated by PCR-based site-directed mutagenesis in two steps. […] We utilized HEK-293 cells,[101] a human embryonic kidney cell-line, as a test cell system for the functional expression of ORs.[102] […] The utilized pGloSensor-22F is a genetically engineered luciferase with a cAMP-binding pocket, allowing for measurements of a direct cAMP-dependent luminescence signal. […] Concentration–response assays were measured 42 h post-transfection as described previously.[102] […]
measuredParameter: pEC50
FYI, pEC50 means -log10 of a concentration in mol per litre.

INPUT: Given the entry CCc1ncc(C)nc1CC [Compound 1, 2,3-Diethyl-5-methylpyrazine] , report its measured pEC50.
OUTPUT: 3.32
